Hello, the source for this data is patent US10111881B2, in case you need it.

# Test system: EBOV
# ASSAY COMMENT: organism not typed
# Assay type: cell-based, Zaire Ebolavirus (Mayinga strain)
What Curve Class (EBOV) was measured for each of the following?

Consider the worked cases shown below.
{"columns": ["MOLECULE", "Curve Class (EBOV)"],
 "data": [
  ["Cc1cc(NC(=O)CCN2CCN(C/C=C/c3ccccc3)CC2)ccc1Br.Cl", 1.6],
  ["CC1(C)CC(NC(=O)N2c3ccccc3Sc3ccccc32)CC(C)(C)N1", 1.3],
  ["CCN1CCCC1CNCC(O)COc1ccc(C(C)(C)C)cc1C.O=C(O)C(=O)O (stereo not drawn)", 1.3],
  ["Fc1ccc2c(c1)Sc1ccc(Cl)cc1CC2N1CCN(CCC2OCCO2)CC1 (stereo not drawn)", 1.5],
  ["OC(CN1CCCCC1)Cn1c2ccc(Cl)cc2c2cc(Cl)ccc21 (stereo not drawn)", 4],
  ["Cc1cc(C)c2nc(C)cc(Nc3ccc(C(=O)NCCO)cc3)c2c1", 4],
  ["CCCCN(CCCC)CCNC(=O)CSCc1ccc(C)cc1.O=C(O)C(=O)O", 1.3],
  ["S=C(Nc1ccc(Cl)cc1)NC1CCN(Cc2ccccc2)CC1", 4]
]}

Please find the next molecule below.
So for CC(C)(C)c1nc2ccccc2c2nnc(SCC(=O)Nc3nccs3)n12 , the logged Curve Class (EBOV) turned out to be 1.6

====

# Tested on: MARV
# ASSAY COMMENT: microbe, parasite or virus in culture
# Type: cell-based, Marburgvirus (Musoke strain)
# CONDITION SUMMARY: read-out: IC-50 (MARV)
What IC50 was measured for each of the following?
Answers are plain numbers, in µM.

Consider the worked cases shown below.
{"columns": ["COMPOUND", "IC50 [µM]"],
 "data": [
  ["Cc1ccccc1NC(=O)CSc1ccc(-c2ccccn2)nn1", 24.8],
  ["CCN1CCN(CCCNC(=O)c2cc3cc4ccc(OC)cc4nc3o2)CC1", 5.4],
  ["C=CCNCCOCCOc1ccc(Cl)cc1C(C)(C)C", 25.2],
  ["CCN(CC)CCNC(=O)c1ccc(NC(=O)c2ccccc2-c2ccc(C(F)(F)F)cc2)cc1", 25.4],
  ["Cc1cc(N2CCN(C)CC2)nc2ccc(NC(=S)NCCCN3CCc4ccccc4C3)cc12", 1.93],
  ["Cc1cc(C)c2nc(C)cc(Nc3ccc(C(=O)NCCO)cc3)c2c1", 13.8],
  ["CN(C)CCCN(C(=O)c1ccc2ccccc2c1)c1nc2cc3c(cc2s1)OCO3.Cl", 13.3],
  ["Cc1nn2c(NCCCN(C)C)c3c(nc2c1-c1ccccc1)CCCC3", 12.5],
  ["COc1ccc2c(c1)c(CCN)c(C)n2Cc1ccccc1.Cl", 25.3],
  ["CCOC(=O)N1CCN(S(=O)(=O)c2ccc(C(=O)N(CCCN(C)C)c3nc4c(C)c(C)ccc4s3)cc2)CC1.Cl", 13]
]}

Okay, here is my list. What is IC50 for each of these?
1. Cc1cccc(C)c1OCC(O)CNC(C)c1ccccc1.Cl (stereo not shown)
2. Fc1ccc(C(c2nnnn2Cc2cccs2)N2CCN(C3CCCCC3)CC2)cc1 (stereo not shown)
3. CC1(C)CC(NC(=O)N2c3ccccc3Sc3ccccc32)CC(C)(C)N1
4. Cc1c(C(=O)NCCN(C)C)oc2ccc(S(=O)(=O)N3CCCC3)cc12

A:
[25.8, 25.8, 12.8, 25.4]

====

# System: EBOV
# ASSAY COMMENT: organism not typed
# Assay type: cell-based, Zaire Ebolavirus (Mayinga strain)
ENDPOINT LABEL: Curve Class (EBOV)
Give bare numbers.

Consider the worked cases shown below.
{"columns": ["COMPOUND", "Curve Class (EBOV)"],
 "data": [
  ["N#Cc1c(NCCN)nc(-c2ccccc2)c2c1CCCC2 [MLS000534476]", 1.6],
  ["Cc1c(C(=O)NCCN(C)C)oc2ccc(S(=O)(=O)N3CCCC3)cc12 [MLS000936795]", 1.4],
  ["CCN(CCNCC(O)COc1ccccc1C(C)C)c1cccc(C)c1.O=C(O)C(=O)O (stereo not drawn) [MLS001179997]", 1.4],
  ["Cc1ccc(NC(=O)CN(C)C(=O)Cn2ncc(Cl)c(Cl)c2=O)cc1 [MLS000336293]", 4],
  ["CCN1CCN(CCCNC(=O)c2cc3cc4ccc(OC)cc4nc3o2)CC1 [MLS000091920]", 4],
  ["C=C1CC(C)OC(c2ccccc2OCC(O)CN2CCCCC2)C1 (stereo not drawn) [MLS000042810]", 1.7],
  ["CCOC(=O)c1c(C)n(CC(O)CN(C)C)c2cc(Br)c(OC)cc12.Cl (stereo not drawn) [MLS000684231]", 1.3],
  ["Cc1cc(C(=O)c2ccccc2)c(NC(=O)CCl)s1 [MLS000567464]", 1.6]
]}

Okay, here is my list. What is Curve Class (EBOV) for each of these?
1. O=C(CCCN1CCc2[nH]c3ccc(F)cc3c2C1)c1ccc(F)cc1 [MLS001173370]
2. CCN(CC)CCCNc1nc(CN2CCOCC2)nc2sc3c(c12)CCC3 [MLS000772389]
3. Cc1ccc(C(=O)N/C(=C/c2ccc(-c3ccc([N+](=O)[O-])cc3)o2)C(=O)NCCCN(C)C)cc1 [MLS001180408]
4. Cc1nn2c(NCCCN(C)C)c3c(nc2c1-c1ccccc1)CCCC3 [MLS000762907]

A:
1.3
1.6
4
1.3

Okay, here is my list. What is Curve Class (EBOV) for each of these?
1. COc1ccc(C(C(=O)NC2CCCCC2)N(C(=O)CCl)c2ccc(C)cc2)cc1 (stereo not drawn) [MLS000583959]
2. Cc1ccccc1NC(=O)CSc1ccc(-c2ccccn2)nn1 [MLS001237534]
3. C=CCNCCOCCOc1ccc(Cl)cc1C(C)(C)C [MLS000666802]

A:
1: 1.3; 2: 4; 3: 1.5

Okay, here is my list. What is Curve Class (EBOV) for each of these?
1. CCOC(=O)N1CCN(S(=O)(=O)c2ccc(C(=O)N(CCCN(C)C)c3nc4c(C)c(C)ccc4s3)cc2)CC1.Cl [MLS001239358]
2. CN(C)CCCN(C(=O)c1ccc2ccccc2c1)c1nc2cc3c(cc2s1)OCO3.Cl [MLS001239325]
3. Oc1ccc(N2CCN(Cc3ccc(OCCCN4CCCCC4)cc3)CC2)cc1 [MLS000736237]
4. O=C1C2CCCN2C(c2cccs2)N1c1ccc(Cl)cc1 (stereo not drawn) [MLS000092187]
5. CN(C)CCCNC(=S)N1CCN(c2nc(-c3ccccc3)cs2)CC1 [MLS001207131]
6. CCOc1cccc(CNCCO)c1OCc1ccc(Cl)cc1Cl.Cl [MLS000580080]

A:
[1.6, 1.7, 4, 1.4, 1.3, 1.3]

====

What Curve Class (EBOV) was measured for each of the following?
# Tested on: EBOV
# ASSAY COMMENT: organism not typed
# Type: cell-based, Zaire Ebolavirus (Mayinga strain)
Answers are plain numbers.

{"columns": ["COMPOUND", "Curve Class (EBOV)"],
 "data": [
  ["COc1ccc(NC(=O)C2C3C=CC4(O3)C2C(=O)N(CCN2CCCCC2)C4C(=O)NC2CCCC(C)C2C)cc1 (centres unmarked)", 1.3],
  ["Fc1ccc(C(c2nnnn2Cc2cccs2)N2CCN(C3CCCCC3)CC2)cc1 (centres unmarked)", 1.6],
  ["O=C(NC1CCCCC1)c1ccc(S(=O)(=O)N2CCCCC2)cc1", 4],
  ["C=C(c1ccc(O)cc1)c1ccc(O)cc1", 1.3],
  ["Cc1cc(OCCCCCNCCO)cc(C)c1Cl", 1.5]
]}

Okay, here is my list. What is Curve Class (EBOV) for each of these?
1. CCCN1CCN(CCCNC(=O)c2cc3c(=O)[nH]c4ccc(C)cc4c3s2)CC1
2. CCN(CC)CCNC(=O)c1ccc(NC(=O)c2ccccc2-c2ccc(C(F)(F)F)cc2)cc1
3. COc1ccc2c(c1)CC(N1CCN(C)CC1)c1cc(OC)ccc1S2.O=C(O)/C=C\C(=O)O (centres unmarked)

A:
[1.3, 1.6, 1.6]

====

# System: Baby hamster kidney fibroblasts (BHK) cells
# ASSAY COMMENT: Acridine orange assay for acidification blockers
# Format: cell-based
ENDPOINT LABEL: Acidification Block

{"columns": ["COMPOUND", "Acidification Block"],
 "data": [
  ["C=C(c1ccc(O)cc1)c1ccc(O)cc1 [MLS000078751]", "−"],
  ["CC(C)(C)c1nc2ccccc2c2nnc(SCC(=O)Nc3nccs3)n12 [MLS000555232]", "−"],
  ["Cc1cc(N2CCN(C)CC2)nc2ccc(NC(=S)NCCCN3CCc4ccccc4C3)cc12 [MLS000730532]", "+"],
  ["Cc1cc(-c2nn(-c3ccccc3F)cc2CN2CCN(c3ccncc3)CC2)c(C)s1 [MLS000733230]", "+"],
  ["N#Cc1c(NCCN)nc(-c2ccccc2)c2c1CCCC2 [MLS000534476]", "+"]
]}

Okay, here is my list. What is Acidification Block for each of these?
1. Cc1nn2c(NCCCN(C)C)c3c(nc2c1-c1ccccc1)CCCC3 [MLS000762907]
2. O=[N+]([O-])c1cc(S(=O)(=O)NCCN2CCOCC2)ccc1Sc1nnnn1-c1ccccc1 [MLS000394177]
3. CC(C)(CS(=O)(=O)[O-])NC(=O)CC[N+](C)(C)CCO [MLS000554255]
4. CC(C)N1CCN(C(=O)c2ccc(OC3CCN(CCc4ccccc4)CC3)cc2)CC1 [MLS001101371]

A:
1: +; 2: +; 3: −; 4: +
